ASSAY PROCEDURE: Cytotoxicity against human THP1-Blue ISG cells assessed as inhibition of cell growth at 10 uM incubated for 24 hrs by MTS assay relative to control
Assay type: toxicity, cell-based
Item-by-item account of inhibition at 24 h, 10 µM
Please state the figure in %; there is no need to write the unit.

Consider the following illustrative entries.
COMPOUND	inhibition at 24 h, 10 µM [%]
CC(C)(C)c1ccc(N2C(=O)c3ccccc3C(C(N)=O)C2c2cc3cc(-c4ccc(C(=O)Nc5cc(-c6ccco6)n[nH]5)cc4)ccc3o2)cc1Cl (stereo not given)	17.8
CC(C)(C)c1ccc(N2C(=O)c3ccccc3C(C(N)=O)C2c2cc3cc(-c4ccc(C(=O)Nc5ccc(O)c(NS(=O)(=O)C(F)(F)F)c5)cc4)ccc3o2)cc1Cl (stereo not given)	20.2
CC(C)(C)c1ccc(N2C(=O)c3ccccc3C(C(N)=O)C2c2cc3cc(-c4ccc(C(=O)Nc5ccc(F)c(NS(C)(=O)=O)c5)cc4)ccc3o2)cc1Cl (stereo not given)	26.8

[ask] Would you kindly share the measured inhibition at 24 h, 10 µM for CC(C)(C)c1ccc(N2C(=O)c3ccccc3C(C(N)=O)C2c2cc3cc(-c4ccc(C(=O)Nc5ccc(N)c(NS(C)(=O)=O)c5)cc4)ccc3o2)cc1Cl (stereo not given) ?
[reply] 28.5

[ask] Item: CS(=O)(=O)Nc1cc(NC(=O)c2ccc(-c3ccc4oc(C5C(C(N)=O)c6ccccc6C(=O)N5c5ccccc5)cc4c3)cc2)ccc1O (stereo not given)
[reply] 23
